# target-or-system: T1, PUF4 RNA-binding domain (Saccharomyces cerevisiae, UniProt P25339 537-888)
# T1 sequence: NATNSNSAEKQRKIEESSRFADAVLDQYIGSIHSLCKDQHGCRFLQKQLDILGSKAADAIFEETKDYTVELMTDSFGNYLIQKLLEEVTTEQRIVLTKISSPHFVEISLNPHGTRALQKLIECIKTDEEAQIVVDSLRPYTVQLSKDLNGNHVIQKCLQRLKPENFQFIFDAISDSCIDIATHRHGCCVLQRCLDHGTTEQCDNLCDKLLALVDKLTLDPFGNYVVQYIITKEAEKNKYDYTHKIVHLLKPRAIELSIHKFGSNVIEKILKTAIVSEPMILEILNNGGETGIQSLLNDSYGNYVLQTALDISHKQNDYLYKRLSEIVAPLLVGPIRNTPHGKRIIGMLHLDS
# measurement-protocol: Mg; RNA-MaP; 20 mM Na-HEPES pH 7.4, 30 mM KOAc, 0.75 mM MgCl2, 0.1% Tween-20, 5% glycerol, 0.1 mg/mL BSA, 2 mM DTT; 25 C; 0.0125-409.6 nM protein
# experimental-parameters: tags: N-His6-TEV cleaved; C-SNAP kept, Cy3B-labelled; label: tethered on chip by stalled RNA polymerase
measure-name: Kd (nM)
The figure you give is taken to be in nM; do not add the unit.

# binder, result-unit, Kd
records = [
    ("Id_iii_S4_P3E.6_K3.2_C3.3_[T-1C]_H3.2_A3.1_F3.1_T3.2 (ssRNA) RNA: UUUGACAACUGAUCGUUCUUUCUUCCUAUAUAUAUAUUCUUUCUCGAUCAGUUGUCUUU", "nM", 33.1),
    ("Ib_S2_P3E.1_K3.1_C3.1_H3.1_[G2A]_A3.1_[T5A]_F3.1_T3.1 (ssRNA) RNA: UUUGAUUAAUAUGAUAUCGUUCUUUCUUAUAAAUAUUCUUUCUCGAUAUCAUAUUAAUCUUU", "nM", 1820),
    ("UCUCUUUGUAUAACCGUCUCUU (ssRNA) [Ic_S1_P5E.1_K5.1_C5.1_H5.1_A5.1_[T6A]_F5.1_[T8C]_[T9C]_[A10G]_T5.1]", "nM", 152),
    ("UCUCUUAUACACUAUAUCUCUCUU (ssRNA) [Id_ii_S1_P3E.4_K3.3_C3.2_[C-2A]_H3.3_A3.1_F3.1_T3.2_[A10C]]", "nM", 40.6),
    ("ACAAACAUUAUAUAUUAGAACAAAC (ssRNA) [Id_ii_S3_P4E.3_K4.2_C4.2_[C-2A]_H4.2_A4.1_F4.1_T4.2_[T11A]]", "nM", 12.8),
]

Here's the next entry for you.
Read the entry Ie_S2_P5E.1_K5.1_C5.1_H5.1_[+3TTCCT]_A5.1_F5.1_T5.1 (ssRNA) RNA: UUUGAUUAAUAUGAUAUCGUUCUUUCUUGUUUCCUAUUAUUAUUCUUUCUCGAUAUCAUAUUAAUCUUU and write its reported Kd.
46.3
